Reference source for all entries: a melting point compilation (Tetko et al.; mined from patent text by program, amines drawn as free bases though some values may be those of a salt)

>  <compound>
C#CCn1c(C(F)(F)F)c(CO)c2ccccc21

>  <melting point>
90 °C

$$$$
>  <compound>
COc1ccc2c(c1)nc(COc1ccc(CC3SC(=O)NC3=O)cc1)n2C (centres undefined)

>  <melting point>
209 to 210 °C

$$$$
>  <compound>
CC(=O)N1N=C(c2ccc(N)cc2)c2cc(Cl)ccc2CC1C (centres undefined)

>  <melting point>
187 to 189 °C

$$$$
>  <compound>
COc1ccc(-c2nc(C(C)=O)cn2-c2ccc(OC)cc2)cc1

>  <melting point>
116 to 117 °C

$$$$
>  <compound>
CCC1=Nc2cc(Cl)ccc2CC(c2sccc2C)N1C (centres undefined)

>  <melting point>
94 to 96 °C

$$$$
>  <compound>
CC(=O)NCCC1CCc2ccc3nc(-c4ccccc4)oc3c21 (centres undefined)

>  <melting point>
124 to 126 °C

$$$$
>  <compound>
CCOC(=O)c1cc2c3ccccc3nc(C)n2c1

>  <melting point>
113 to 116 °C

$$$$
>  <compound>
Cc1ccc(-c2c(Cl)ncnc2NS(=O)(=O)c2ccc(C(C)(C)COC3CCCCO3)cc2)cc1 (centres undefined)

>  <melting point>
141 to 144 °C

$$$$
>  <compound>
CNC(=S)n1nc(C=Cc2ccc(Cl)cc2)nc1N

>  <melting point>
209 to 210 °C

$$$$
